# System: HBV mutant L180M quad (rt L180M, T184G, S202I, M204V)
# Method: Antiviral testing in HepG2 cells transduced with recombinant HBV/baculovirus, L180M quad mutant
# Assay type: cell-based, hepatitis B virus
# Experimental Setup: area under dose-response curve, value relative to WT = 1.0
Where a name gives a salt, the structure may show the parent alone.
// reported AUC for each item listed

Compound	AUC
C=C1[C@H](CO)[C@@H](O)C[C@@H]1n1cnc2c(=O)[nH]c(N)nc21	242.7
CC(C)OC(=O)OCOP(=O)(CO[C@H](C)Cn1cnc2c(N)ncnc21)OCOC(=O)OC(C)C [TFV, tenofovir disoproxil fumarate]	4.2
Nc1nc(=O)n([C@@H]2CS[C@H](CO)O2)cc1F	464.4
Cc1cn([C@@H]2C[C@@H](O)[C@H](CO)O2)c(=O)[nH]c1=O	21.1
Nc1ccn([C@@H]2CS[C@H](CO)O2)c(=O)n1 [LMV, (−)-β-2′-deoxy-3′-thiacytidine]	603.4
CC(C)(C)C(=O)OCOP(=O)(COCCn1cnc2c(N)ncnc21)OCOC(=O)C(C)(C)C	1.3

Recorded values, source patent US8367317B2.
